Data origin: paper PMC5187494

Reported fuCmax (maximum unbound concentration in human plasma) values follow for various compounds
- protocol-details: Maximum (unbound) drug concentration in human plasma
- Assay type: in vivo
- assay-context: fu multiplied by reported Cmax
Structures can show the parent of a compound that is named as a salt.
Write it as a number; the unit µM goes unstated.

C=CC[C@@H]1/C=C(\C)C[C@H](C)C[C@H](OC)[C@H]2O[C@@](O)(C(=O)C(=O)N3CCCC[C@H]3C(=O)O[C@H](/C(C)=C/[C@@H]3CC[C@@H](O)[C@H](OC)C3)[C@H](C)[C@@H](O)CC1=O)[C@H](C)C[C@@H]2OC [Tacrolimus, tacrolimus] :: 0.00054
N#Cc1cc(-c2n[nH]c(-c3ccncc3)n2)ccn1 [Topiroxostat, topiroxostat] :: 0.017

Turning now to a further compound:
If you can, please state the reported fuCmax (maximum unbound concentration in human plasma) value of CC(C)c1nc(N(C)S(C)(=O)=O)nc(-c2ccc(F)cc2)c1/C=C/[C@@H](O)C[C@@H](O)CC(=O)O [Rosuvastatin, rosuvastatin calcium salt] .
0.0011
